assay text: Metabolic stability in human liver microsomes
Assay type: in vitro ADME
details: 0.5 μM test substance, NADPH, 37° C., scaled microsomal clearance, examples marked * tested as fumarate salts

| compound | human mCl |
| --- | --- |
| CN[C@H]1COc2cc(F)c(N3CC(NS(=O)(=O)CC4CC4)C3)cc2[C@H]1Cc1ccccc1 (relative stereo) [Example 19a] | ≦50 L/h/Kg |
| O=S(=O)(NC1CN(c2cc3c(cc2F)OC[C@@H](N2CCC2)[C@H]3Cc2ccccc2)C1)c1cccnn1 (relative stereo) [Example 9] | ≦50 L/h/Kg |
| CCCS(=O)(=O)NC1CN(c2ccc3c(c2)[C@H](Cc2ccccc2)[C@H](N(CC)CC)CO3)C1 (relative stereo) [Example 30] | ≦50 L/h/Kg |

----------
target of assay: human GlyT1c transporter (Homo sapiens (Human), UniProt P48067)
Sequence (P48067 whole entry): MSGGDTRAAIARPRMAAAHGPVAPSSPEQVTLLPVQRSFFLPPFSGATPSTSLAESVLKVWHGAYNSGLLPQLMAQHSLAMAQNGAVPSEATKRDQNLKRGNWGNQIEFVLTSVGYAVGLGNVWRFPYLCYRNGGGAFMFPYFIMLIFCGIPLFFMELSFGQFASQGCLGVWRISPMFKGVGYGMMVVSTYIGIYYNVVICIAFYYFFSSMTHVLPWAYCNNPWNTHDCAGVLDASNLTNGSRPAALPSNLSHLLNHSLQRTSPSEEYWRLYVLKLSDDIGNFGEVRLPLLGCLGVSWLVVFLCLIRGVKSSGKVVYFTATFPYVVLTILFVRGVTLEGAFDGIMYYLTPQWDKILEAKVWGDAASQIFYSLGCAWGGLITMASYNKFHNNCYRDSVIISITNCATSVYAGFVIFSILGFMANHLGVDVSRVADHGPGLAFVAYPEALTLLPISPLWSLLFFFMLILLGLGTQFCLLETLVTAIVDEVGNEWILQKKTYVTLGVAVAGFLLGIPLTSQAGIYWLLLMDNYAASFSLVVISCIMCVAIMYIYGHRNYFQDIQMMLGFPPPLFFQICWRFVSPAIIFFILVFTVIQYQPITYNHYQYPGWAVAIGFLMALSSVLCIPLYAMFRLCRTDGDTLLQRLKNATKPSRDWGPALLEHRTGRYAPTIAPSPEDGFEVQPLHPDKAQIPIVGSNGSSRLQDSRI
assay text: Radioligand binding assay using recombinant CHO cell membranes expressing human GlyT1
details: examples marked * tested as fumarate salts, read-out: radioligand binding Kiapp
attribute measured: Ki

| compound | attribute measured | obs value |
| --- | --- | --- |
| O=S(=O)(NC1CN(c2cc3c(cc2F)OC[C@@H](N2CCC2)[C@H]3Cc2ccccc2)C1)c1cncc(F)c1 (relative stereo) [Example 26] | Ki | ≤ 100 nM |
| CCCS(=O)(=O)NC1CN(c2ccc3c(c2)C(Cc2ccccc2)C(NC)CO3)C1 (racemic) [Example 11] | Ki | ≤ 10 nM |
| CNC1COc2cc(F)c(N3CC(NS(=O)(=O)c4cn(C)nn4)C3)cc2C1Cc1ccccc1 (single isomer, unassigned) [Example 18a] | Ki | ≤ 10 nM |
| CCS(=O)(=O)NC1CN(c2cc3c(cc2F)OCC(NC)C3Cc2ccccc2)C1 (single isomer, unassigned) [Example 14b] | Ki | ≤ 100 nM |
| CCCS(=O)(=O)NC1CN(c2cc3c(cc2F)OCC(NC)C3Cc2ccccc2)C1 (single isomer, unassigned) [Example 28] | Ki | ≤ 100 nM |

Inquiry: Given the compound CCS(=O)(=O)NC1CN(c2ccc3c(c2)[C@H](Cc2ccccc2)[C@H](NC)CO3)C1 (relative stereo) [Example 12] , what is its reported Ki?
Reply text: ≤ 100 nM

Inquiry: Input CCS(=O)(=O)NC1CN(c2cc3c(cc2F)OCC(NC)C3Cc2ccccc2)C1 (single isomer, unassigned) [Example 14a]
Reply text: ≤ 100 nM

----------
assay text: Metabolic stability in human liver microsomes
Format: in vitro ADME
details: 0.5 μM test substance, NADPH, 37° C., scaled microsomal clearance, examples marked * tested as fumarate salts
attribute measured: human mCl

| compound | human mCl |
| --- | --- |
| CN[C@H]1COc2cc(F)c(N3CC(NS(=O)(=O)c4cnn(C)c4)C3)cc2[C@@H]1Cc1ccccc1 (relative stereo) [Example 17b] | ≦5 L/h/Kg |
| CCCS(=O)(=O)NC1CN(c2cc3c(cc2F)OC[C@H](NC)[C@@H]3Cc2ccccc2)C1 (relative stereo) [Example 16a] | ≦5 L/h/Kg |
| CCCS(=O)(=O)NC1CN(c2cc3c(cc2F)OCC(NC)C3Cc2ccccc2)C1 (single isomer, unassigned) [Example 27] | ≦50 L/h/Kg |
| Cn1cc(S(=O)(=O)NC2CN(c3ccc4c(c3)[C@H](Cc3ccccc3)[C@H](N3CCC3)CO4)C2)nn1 (relative stereo) [Example 6] | ≦5 L/h/Kg |
| CNC1COc2ccc(N3CC(NS(=O)(=O)CC4CC4)C3)cc2C1Cc1ccccc1 (racemic) [Example 13] | ≦5 L/h/Kg |
| O=S(=O)(NC1CN(c2ccc3c(c2)[C@H](Cc2ccccc2)[C@H](N2CCC2)CO3)C1)c1cccnc1F (relative stereo) [Example 10] | ≦5 L/h/Kg |

Inquiry: Given the compound CCS(=O)(=O)NC1CN(c2cc3c(cc2F)OC[C@H](NC)[C@@H]3Cc2ccccc2)C1 (relative stereo) [Example 14a] , what is its reported human mCl?
Reply text: ≦5 L/h/Kg

Inquiry: Input N[C@@H]1COc2ccc(N3CC(NS(=O)(=O)CC4CC4)C3)cc2[C@@H]1Cc1ccccc1 (relative stereo) [Example 21]
Reply text: ≦5 L/h/Kg

Inquiry: Input CCCS(=O)(=O)NC1CN(c2ccc3c(c2)[C@H](Cc2ccccc2)[C@H](NC2CCC2)CO3)C1 (relative stereo) [Example 32]
Reply text: ≦5 L/h/Kg

Inquiry: Input CCS(=O)(=O)NC1CN(c2ccc3c(c2)[C@H](Cc2ccccc2)[C@H](NC)CO3)C1 (relative stereo) [Example 12]
Reply text: ≦5 L/h/Kg

Inquiry: Input CN[C@H]1COc2cc(F)c(N3CC(NS(=O)(=O)c4cn(C)cn4)C3)cc2[C@H]1Cc1ccccc1 (relative stereo) [Example 15a]
Reply text: ≦5 L/h/Kg

Inquiry: Input CN[C@H]1COc2cc(F)c(N3CC(NS(=O)(=O)CC4CC4)C3)cc2[C@@H]1Cc1ccccc1 (relative stereo) [Example 19b]
Reply text: ≦50 L/h/Kg

Inquiry: Input CCCS(=O)(=O)NC1CN(c2cc3c(cc2F)OCC(NC)C3Cc2ccccc2)C1 (single isomer, unassigned) [Example 28]
Reply text: ≦5 L/h/Kg

----------
Ki listing for selected molecules.
target of assay: human GlyT1c transporter (Homo sapiens (Human), UniProt P48067)
assay text: Radioligand binding assay using recombinant CHO cell membranes expressing human GlyT1
details: examples marked * tested as fumarate salts, read-out: radioligand binding Kiapp

Look over these answered cases.
| molecule | target of assay | Ki |
| --- | --- | --- |
| CNC1COc2cc(F)c(N3CC(NS(=O)(=O)c4cn(C)cn4)C3)cc2C1Cc1ccccc1 (single isomer, unassigned) [Example 15a] | human GlyT1c transporter (Homo sapiens (Human), UniProt P48067) | ≤ 10 nM |
| O=S(=O)(CC1CC1)NC1CN(c2ccc3c(c2)[C@H](Cc2ccccc2)[C@H](N2CCC2)CO3)C1 (relative stereo) [Example 4] | human GlyT1c transporter (Homo sapiens (Human), UniProt P48067) | ≤ 100 nM |
| CCS(=O)(=O)NC1CN(c2ccc3c(c2)[C@H](Cc2ccccc2)[C@H](N2CCC2)CO3)C1 (relative stereo) [Example 2] | human GlyT1c transporter (Homo sapiens (Human), UniProt P48067) | ≤ 1000 nM |
| CCCS(=O)(=O)NC1CN(c2ccc3c(c2)[C@H](Cc2ccccc2)[C@H](N(CC)CC)CO3)C1 (relative stereo) [Example 30] | human GlyT1c transporter (Homo sapiens (Human), UniProt P48067) | ≤ 100 nM |
| CCCS(=O)(=O)NC1CN(c2ccc3c(c2)C(Cc2ccccc2)C(NC)CO3)C1 (single isomer, unassigned) [Example 22] | human GlyT1c transporter (Homo sapiens (Human), UniProt P48067) | ≤ 10 nM |

Inquiry: Given the molecule CNC1COc2ccc(N3CC(NS(=O)(=O)CC4CC4)C3)cc2C1Cc1ccccc1 (single isomer, unassigned) [Example 25] , what is its reported Ki?
Reply text: ≤ 1000 nM

Inquiry: Input CCCS(=O)(=O)NC1CN(c2ccc3c(c2)C(Cc2ccccc2)C(NC)CO3)C1 (single isomer, unassigned) [Example 23]
Reply text: ≤ 1000 nM

Inquiry: Input O=S(=O)(NC1CN(c2cc3c(cc2F)OC[C@@H](N2CCC2)[C@H]3Cc2ccccc2)C1)c1cccnc1F (relative stereo) [Example 8]
Reply text: ≤ 1000 nM

----------
pKi listing for selected compounds.
target of assay: human GlyT1c transporter (Homo sapiens (Human))
assay text: Radioligand binding assay using recombinant CHO cell membranes expressing human GlyT1
details: examples marked * tested as fumarate salts, read-out: radioligand binding Kiapp
pKi: −log10 of the molar value.

| compound | pKi |
| --- | --- |
| CNC1COc2cc(F)c(N3CC(NS(=O)(=O)CC4CC4)C3)cc2C1Cc1ccccc1 (single isomer, unassigned) [Example 19a] | ≥ 8.00 |
| CNC1COc2cc(F)c(N3CC(NS(=O)(=O)CC4CC4)C3)cc2C1Cc1ccccc1 (single isomer, unassigned) [Example 19b] | ≥ 8.00 |
| CNC1COc2ccc(N3CC(NS(=O)(=O)CC4CC4)C3)cc2C1Cc1ccccc1 (single isomer, unassigned) [Example 24] | ≥ 8.00 |

Inquiry: Lab note: need pKi with human GlyT1c transporter (Homo sapiens (Human)) for entry CCCN[C@@H]1COc2ccc(N3CC(NS(=O)(=O)CCC)C3)cc2[C@@H]1Cc1ccccc1 (relative stereo) , please look it up.
Reply text: ≥ 7.00

Inquiry: Input CNC1COc2cc(F)c(N3CC(NS(=O)(=O)c4cn(C)cn4)C3)cc2C1Cc1ccccc1 (single isomer, unassigned) [Example 15b]
Reply text: ≥ 8.00

Inquiry: Input Cn1cc(S(=O)(=O)NC2CN(c3ccc4c(c3)[C@H](Cc3ccccc3)[C@H](N3CCC3)CO4)C2)nn1 (relative stereo)
Reply text: ≥ 8.00

Inquiry: Input CNC1COc2cc(F)c(N3CC(NS(=O)(=O)c4cnn(C)c4)C3)cc2C1Cc1ccccc1 (single isomer, unassigned) [Example 17b]
Reply text: ≥ 8.00

Inquiry: Input O=S(=O)(NC1CN(c2cc3c(cc2F)OC[C@@H](N2CCC2)[C@H]3Cc2ccccc2)C1)c1cccnn1 (relative stereo)
Reply text: ≥ 6.00
